Where these numbers come from: patent US20100099561A1

Listing: Plant response rating, Morningglory of selected compounds
- Tested on: morningglory (Ipomoea spp.)
- Assay overview: Test A postemergence, morningglory
- Assay type: in vivo
- Condition context: 500 g ai/ha, 0 to 100 scale (0 no effect, 100 complete control)
Lab note: record just the number, no unit beside it.

Lookup: Plant response rating, Morningglory / morningglory (Ipomoea spp.) / CC1(C)CC([S+]([O-])Cc2c(C(F)(F)F)nc3ccon3c2=O)=NO1 (stereo not shown)
40

Let us now turn to CC1(C)CC(S(=O)(=O)Cc2c(C(F)(F)F)nc3n(c2=O)CCCO3)=NO1
50

Let us now turn to CC1(C)CC([S+]([O-])Cc2c(C(F)(F)F)nc3n(c2=O)CCC3)=NO1 (stereo not shown)
20

Let us now turn to CCn1c(=O)c(CS(=O)(=O)C2=NOC(C)(C)C2)nc2cccnc21
0

Let us now turn to CC1(C)CC(S(=O)(=O)Cc2c(C(F)(F)C(F)(F)F)nc3n(c2=O)CCCC3)=NO1
40

Let us now turn to CC1(C)CC(S(=O)(=O)Cc2c(C(F)(F)F)nc3n(c2=O)CCO3)=NO1
70

Let us now turn to CC1(C)CC([S+]([O-])Cc2c(C(F)(F)C(F)(F)F)nc3n(c2=O)CCCC3)=NO1 (stereo not shown)
20

Let us now turn to Cn1c(=O)c(C[S+]([O-])C2=NOC(C)(C)C2)nc2ccccc21 (stereo not shown)
0

Let us now turn to CC1(C)CC(S(=O)(=O)Cc2c(C(F)(F)F)nc3n(c2=O)CCCCC3)=NO1
60

Let us now turn to Cc1con2c(=O)c(C[S+]([O-])C3=NOC(C)(C)C3)c(C(F)(F)F)nc12 (stereo not shown)
20

---

- Tested on: pigweed (Amaranthus retroflexus)
- Assay overview: Test A postemergence, pigweed
- Format: in vivo
- Condition context: 500 g ai/ha, 0 to 100 scale (0 no effect, 100 complete control)
Readout kind: Plant response rating, Pigweed
Lab note: record just the number, no unit beside it.

These solved cases illustrate the format of a correct answer.
{"Compound": "CC1(C)CC(S(=O)(=O)Cc2c(C(F)(F)C(F)(F)F)nc3n(c2=O)CCCC3)=NO1 [Compound 21]", "Target": "pigweed (Amaranthus retroflexus)", "Plant response rating, Pigweed": 10}
{"Compound": "CC1(C)CC([S+]([O-])Cc2c(C(F)(F)F)nc3n(c2=O)CCS3)=NO1 (stereo not drawn) [Compound 5]", "Target": "pigweed (Amaranthus retroflexus)", "Plant response rating, Pigweed": 10}

Then this compound:
Using the record for CC1(C)CC(S(=O)(=O)Cc2c(C(F)(F)F)nc3cccnn3c2=O)=NO1 [Compound 45] , report its Plant response rating, Pigweed.
10

---

- Tested on: velvetleaf (Abutilon theophrasti)
- Assay overview: Test A preemergence, velvetleaf
- Assay type: in vivo
- Condition context: 125 g ai/ha, 0 to 100 scale (0 no effect, 100 complete control)
- From the text: Seeds of barnyardgrass (Echinochloa crus-galli), large crabgrass (Digitaria sanguinalis), giant foxtail (Setaria faberi), morningglory (Ipomoea spp.), pigweed (Amaranthus retroflexus), velvetleaf (Abutilon theophrasti), wheat (Triticum aestivum), and corn (Zea mays) were planted into a blend of loam soil and sand and treated preemergence with a directed soil spray using test chemicals formulated in a non-phytotoxic solvent mixture which included a surfactant. […]
Listing: Plant response rating, Velvetleaf of selected molecules
Lab note: record just the number, no unit beside it.

{"Molecule": "CC1(C)CC(S(=O)(=O)Cc2c(C(F)(F)C(F)(F)F)nc3n(c2=O)CCC3)=NO1 [Compound 22]", "Plant response rating, Velvetleaf": 30}
{"Molecule": "CC1(C)CC(S(=O)(=O)Cc2c(C(F)(F)F)nc3cccnn3c2=O)=NO1 [Compound 45]", "Plant response rating, Velvetleaf": 0}
{"Molecule": "CC1(C)CC(S(=O)(=O)Cc2c(C(F)(F)F)nc3n(c2=O)CCO3)=NO1 [Compound 2]", "Plant response rating, Velvetleaf": 10}
{"Molecule": "CC1(C)CC([S+]([O-])Cc2c(C(F)(F)Cl)nc3n(c2=O)CCCS3)=NO1 (stereo not shown) [Compound 36]", "Plant response rating, Velvetleaf": 0}
{"Molecule": "CC1(C)CC(S(=O)(=O)Cc2c(C(F)(F)Cl)nc3n(c2=O)CCC3)=NO1 [Compound 18]", "Plant response rating, Velvetleaf": 0}

Using the record for CC1(C)CC([S+]([O-])Cc2c(C(F)(F)F)nc3n(c2=O)CCS3)=NO1 (stereo not shown) [Compound 5] , report its Plant response rating, Velvetleaf.
0

Let us now turn to CC1(C)CC(S(=O)(=O)Cc2c(C(F)(F)F)nc3n(c2=O)CCCC3)=NO1 [Compound 8]
20

Let us now turn to Cc1con2c(=O)c(C[S+]([O-])C3=NOC(C)(C)C3)c(C(F)(F)F)nc12 (stereo not shown) [Compound 47]
0

Let us now turn to CC1(C)CC([S+]([O-])Cc2c(C(F)(F)C(F)(F)F)nc3n(c2=O)CCCS3)=NO1 (stereo not shown) [Compound 40]
0

Let us now turn to CC1(C)CC(S(=O)(=O)Cc2c(C(F)(F)F)nc3ccon3c2=O)=NO1 [Compound 42]
0
